These data points were gathered from the supplement of paper PMC11417369.

Test system: PfAP2-I AP2 domain 3 (GST-tagged)
Experiment: gcPBM binding intensity (ln(normalized median fluorescence intensity)); higher = stronger DNA binding
In all, about 25,000 sequences were measured (“ln(normalized median fluorescence intensity)”: median about 7.9, highest 2% from about 11 on). The sample holds the highest values, similar sequences and a random draw of the others, so the mix is not that of the screen.
measure_name: gcPBM binding intensity (ln)
Output: the number by itself.

Field request: gcPBM binding intensity (ln) | item: GTTTATGTATTATTATGTACGTATCATAATATATAT [XGTACX_site2385]
8.28

Suppose we examine the sequence ACACCTATAAATTAAGTGCATTTTTTTTGATGTTAT ; what gcPBM binding intensity (ln) value has been reported?
9.45

GET /values?readout=gcPBM binding intensity (ln)&item= ATATATAACGGGCACACACACATTTACGTATGAATA [CACACA_site1833]
8.31

Form field: reported gcPBM binding intensity (ln) of TTTTTTTTTTTTTTGTGTACTAATATTATAAATTTT [XGTACX_site4405]
8.14

Others:
Query: gcPBM binding intensity (ln); subject: ATATATATTATATAAGTGCATAATATTCTTTCTTTT
10.5

I would be grateful if you could share the reported gcPBM binding intensity (ln) for ATATATATATATGAAAGTACACATCTATTTTTTCTT [XGTACX_site6059] .
9.29

# input sequence: TTATACCTATATTTAACACACATTTGATAAAGTGCC [CACACA_site6732] ; wanted: its gcPBM binding intensity (ln)
7.76

Requested read-out: gcPBM binding intensity (ln). Entry: TTCCTGTTAATTACAACACACAATTCTTATTTTATG [CACACA_site6507]
7.98

Request the reported gcPBM binding intensity (ln) associated with TTATATAATTTAATAGTGCAATTATATTAATTTTTC
9.82

Return reported gcPBM binding intensity (ln); argument: TTATTAAATTTTTTTTGTACTTATATATATATATAT [XGTACX_site2443]
9.23

Reported gcPBM binding intensity (ln), sequence ATACCTATTTGATGAGTGCATTATCCAATATATGTA : ____
11.3

Look up gcPBM binding intensity (ln) for this sequence: AAATAATTATTTATCACACATATGTATTTATATATA [CACACA_site4589]
7.66

Entry ATATATAACGTGCACACACACATTTACGTATGAATA [CACACA_site6948] has what gcPBM binding intensity (ln)?
11

Recorded gcPBM binding intensity (ln) for ATTTTCTTTTCCATAGTGCAATATAATTATCCATCA [GTGCAC_site9547] , please?
11.3

Form field: reported gcPBM binding intensity (ln) of ATTAATATATAACGTGCACACACACCGTTACGTATG [CACACA_site8543]
10.3

Could you tell me which gcPBM binding intensity (ln) is on file for TAATATATAACGTGCACACACACATCTACGTATGAA [CACACA_site5080] ?
10.8

Param item = TATATATGCATATACATACACACATAACACATACGT [CACACA_site3833] ; retrieve measured gcPBM binding intensity (ln).
8.24

Would you kindly share the measured gcPBM binding intensity (ln) for TTTATACATACATTCGTGCACATACGTATAACATAT ?
11.2

Look up gcPBM binding intensity (ln) for this sequence: TTAACATAAATATATACACACCAATGATGGCATTTA [CACACA_site4952]
7.51

Endpoint output: gcPBM binding intensity (ln) of TAATATATAACGTGCACACACACATTTACGTATGAA [CACACA_site1832] . Value?
10.9

GET /values?readout=gcPBM binding intensity (ln)&item= GCATGCACGGAAAAAAGTACATATATAAATTTGGTT [XGTACX_site3393]
8.2
